Tested on: ryegrass, Italian
Assay Notes: Test C postemergence
Type: in vivo, Lolium multiflorum
Condition Details: postemergence, 62 g ai/ha; scale 0 to 100
Property: Ryegrass, Italian plant response rating

// input: 2 compounds below; output: Ryegrass, Italian plant response rating for each
1. CCCc1cc(C(=O)NCC(F)(F)F)nn1Cc1cc(C(F)(F)F)nn1C
2. CCCc1cc(C(=O)NCC)nn1Cc1cc(C(F)(F)F)nn1C

Solution:
15
5

# per-item lookup of Ryegrass, Italian plant response rating; items listed below
1. CCCNC(=O)c1cc(CC)n(Cc2ccnc(OC(F)F)c2)n1
2. CCc1cc(C(=O)NC(C)C)nn1Cc1ccnc(C(F)(F)F)c1

Solution:
1: 10; 2: 5

* * *

Tested on: foxtail, giant
Assay Notes: Test A postemergence
Assay type: in vivo, Setaria faberii
Condition Details: postemergence, 125 g ai/ha, about 10 days, visual rating on 0 to 100 scale (0 no effect, 100 complete control)
Field: Foxtail, Giant plant response rating. Provide a value for each of the compounds that follow.

CCc1cc(-c2ccc(C(F)(F)F)cc2)nn1C(=O)c1ccnc(C(F)(F)F)c1
10

Below are some compounds; for each one, tell me its Foxtail, Giant plant response rating.
1. CCNC(=O)c1cc(C)n(Cc2cccc(OC(F)(F)F)c2)n1
2. Cc1cc(C(=O)NC(C)C)nn1Cc1ccnc(C(F)(F)F)c1
3. Cc1cc(C(=O)NC2CC2)nn1Cc1cccc(OC(F)(F)F)c1
4. Cc1cc(C(=O)NCC(F)(F)C(F)(F)F)nn1Cc1cccc(C(F)(F)F)c1
5. CCCNC(=O)c1cc(CC)n(Cc2cc(OC(F)F)nn2C)n1

Solution:
1: 10; 2: 80; 3: 20; 4: 10; 5: 10

* * *

System: rice
Assay Notes: Test B flood
Assay type: in vivo, Oryza sativa
Condition Details: 250 g ai/ha, visual rating on 0 to 100 scale (0 no effect, 100 complete control), 13 to 15 days
Answer each item with its documented Plant response rating, Rice.
One number for each entry.

Solved cases below.
CCc1cc(C(=O)NCC2CC2)nn1Cc1ccnc(C(F)(F)F)c1
45
CCOc1cc(C(=O)NC2CC2)nn1Cc1ccnc(OC(F)F)c1
20
CCc1cc(C(=O)NC(C)C)nn1Cc1cc(C(F)(F)F)nn1C(C)C
0

Parameter requested: Plant response rating, Rice. Apply to each item below.
1. CCc1cc(C(=O)NC2CC2)nn1Cc1ccnc(OC(F)F)c1
2. CCc1cc(-c2ccc(Br)cc2)nn1Cc1ccnc(C(F)(F)F)c1
3. O=C(NCC(F)(F)F)c1cc(I)n(Cc2cccc(C(F)(F)F)c2)n1
4. CCOc1cc(C(=O)NC2CC2)nn1Cc1ccnc(C(F)(F)F)c1
5. CCc1cc(C(=O)NCC(F)(F)F)nn1Oc1ccnc(C(F)(F)F)c1
6. CCc1cc(C(=O)NOC)nn1Cc1ccnc(C(F)(F)F)c1

Solution:
0
20
20
45
0
0

* * *

System: blackgrass
Assay Notes: Test C postemergence
Type: in vivo, Alopecurus myosuroides
Condition Details: postemergence; 125 g ai/ha; scale 0 to 100, 0 no effect, 100 complete control
Property: Plant response rating, Blackgrass
One number for each entry.

Previously resolved entries follow.
CCCc1cc(C(=O)NOCC)nn1Cc1ccnc(C(F)(F)F)c1
5
CCOc1cc(C(=O)NC(C)C)nn1Cc1ccnc(C(F)(F)F)c1
40
CCCc1cc(C(=O)NCC)nn1Cc1cc(C(F)(F)F)nn1C
35

Consider now this further molecule.
Exercise: What value of measured Plant response rating, Blackgrass is listed for CCCc1cc(C(=O)NCC(F)(F)F)nn1Cc1cc(C(F)(F)F)nn1C ?
Solution: 20

* * *

Tested on: Italian ryegrass
Assay Notes: Test A postemergence
Format: in vivo, Lolium multiflorum
Condition Details: Postemergence, 500 g ai/ha; 0 to 100 scale (0 no effect, 100 complete control)
Excerpt: […]
Hi there, I'd appreciate the recorded Italian Ryegrass plant response rating for every entry that follows.
Answers are plain numbers.

Batch: Italian Ryegrass plant response rating for all items listed.
1. CCc1cc(C(=O)NC(C)C)nn1Cc1cc(C(F)(F)F)nn1C(C)C
2. CCCNC(=O)c1cc(CC)n(Cc2cc(C(F)(F)F)no2)n1
3. CCCCNC(=O)c1cc(CC)n(Cc2cc(OC(F)F)nn2C)n1
4. CCOc1cc(C(=O)NC2CC2)nn1Cc1ccnc(OC(F)F)c1

Solution:
1. 0
2. 50
3. 0
4. 80

Exercise: // returns reported Italian Ryegrass plant response rating for input CCCNC(=O)c1cc(CC)n(Cc2cc(C(F)(F)F)nn2C(C)C)n1
Solution: 0

* * *

System: crabgrass, large
Assay Notes: Test A postemergence
Format: in vivo, Digitaria sanguinalis
Condition Details: Postemergence, 500 g ai/ha; 0 to 100 scale (0 no effect, 100 complete control)
Description: […]
Property: Crabgrass, Large plant response rating
Numbers only.

Worked cases, Crabgrass, Large plant response rating given:
CCCCc1cc(C(=O)NC2CC2)nn1Cc1ccnc(C(F)(F)F)c1
80
O=C(NC1CC1)c1cc(Br)n(Cc2cccc(C(F)(F)F)c2)n1
40
CCc1cc(C(=O)NN(C)C)nn1Cc1ccnc(C(F)(F)F)c1
20
CCc1cc(C(=O)NCC(F)(F)F)nn1Oc1cccc(OC(F)(F)F)c1
30
CCc1cc(C(=O)NC2CC2)nn1Cc1nc(C(F)(F)F)no1
70

For every listed record, write down its Crabgrass, Large plant response rating.
1. CCc1cc(C(=O)NC(C)C)nn1Cc1ccnc(C(F)(F)F)c1
2. CCc1cc(-c2ccc(C(F)(F)F)cc2)nn1C(=O)c1ccnc(C(F)(F)F)c1

Solution:
1. 90
2. 20

Hi team, please reply with Crabgrass, Large plant response rating for each item in this list.
1. CCCc1cc(C(=O)NCC(F)(F)F)nn1Cc1cc(C(F)(F)F)nn1C
2. CCc1cc(C(=O)NCC(F)(F)F)nn1Cc1nnc(C(F)(F)F)o1

Solution:
1: 100; 2: 80

* * *

Test system: velvetleaf
Assay Notes: Test A postemergence
Format: in vivo, Abutilon theophrasti
Condition Details: Postemergence, 1000 g ai/ha; visual rating after approx. 10 days, 0 to 100 scale (0 no effect, 100 complete control)
Provide the recorded Velvetleaf plant response rating for the entries that follow.
Give bare numbers.

Here's what some known entries look like.
CCNC(=O)c1cc(CC)n(Cc2cccc(OC(F)(F)F)c2)n1 [Compound 19]
100
CCc1cc(C(=O)NCCC(F)(F)F)nn1Cc1cccc(OC(F)(F)F)c1 [Compound 55]
90

Your task in this section: give Velvetleaf plant response rating for each listed record.
1. C=CCNC(=O)c1cc(CC)n(Cc2cccc(C(F)(F)F)c2)n1 [Compound 44]
2. CCCc1cc(C(=O)NC2CC2)nn1Cc1cccc(C(F)(F)F)c1 [Compound 30]
3. CCCc1cc(C(=O)NCC(F)(F)F)nn1Cc1cccc(C(F)(F)F)c1 [Compound 31]
4. CCc1cc(C(=O)NCC(C)C)nn1Cc1cccc(C(F)(F)F)c1 [Compound 49]

Solution:
1: 40; 2: 100; 3: 100; 4: 50

* * *

Tested on: corn
Assay Notes: Test A postemergence
Type: in vivo, Zea mays
Condition Details: Postemergence, 500 g ai/ha; 0 to 100 scale (0 no effect, 100 complete control)
Property: Corn plant response rating
One number for each entry.

# count of solved cases: 4
CCc1cc(C(=O)NC(C)C)nn1Cc1ccnc(C(F)(F)F)c1 [Compound 139]
90
CCc1cc(C(=O)NN(C)C)nn1Cc1ccnc(C(F)(F)F)c1 [Compound 192]
50
O=C(NCC(F)(F)F)c1cc(I)n(Cc2cccc(C(F)(F)F)c2)n1 [Compound 181]
20
CCc1cc(-c2ccc(C(F)(F)F)cc2)nn1C(=O)c1ccnc(C(F)(F)F)c1 [Compound 165]
10

// switching to the query compound
Exercise: Could you share which Corn plant response rating value was measured for CCc1cc(C(=O)NCC(F)(F)F)nn1Cc1cc(C(F)(F)F)nn1CC [Compound 119] ?
Solution: 50

* * *

Test system: crabgrass, large
Assay Notes: Test A postemergence
Format: in vivo, Digitaria sanguinalis
Condition Details: postemergence, 125 g ai/ha, about 10 days, visual rating on 0 to 100 scale (0 no effect, 100 complete control)
Kindly state Crabgrass, Large plant response rating for each of the entries shown.
Answers are plain numbers.

Previously resolved entries follow.
CCc1cc(-c2ccc(Br)cc2)nn1Cc1ccnc(C(F)(F)F)c1
10
CCCNC(=O)c1cc(CCC)n(Cc2cc(C(F)(F)F)nn2C)n1
90
Cc1cc(C(=O)NC2CC2)nn1Cc1cc(F)cc(C(F)(F)F)c1
20
CCc1cc(C(=O)NCC(F)(F)F)nn1Cc1ccnc(OCC(F)(F)F)c1
50
CCc1cc(-c2ccc(C(F)(F)F)cc2)nn1Cc1nc(C(F)(F)F)nn1C
50
CCc1cc(C(=O)NC2CC2)nn1Cc1ccnc(OCC(F)(F)F)c1
100
CCc1cc(C(=O)NC(C)C)nn1Cc1ccnc(C(F)(F)F)c1 [Compound 103]
90
CCNC(=O)c1cc(CC)n(Cc2ccnc(OC(F)F)c2)n1
70

Now take the following molecule into account.
Exercise: Which measured Crabgrass, Large plant response rating value corresponds to CCONC(=O)c1cc(C)n(Cc2cccc(OC(F)(F)F)c2)n1 ?
Solution: 40
